Here, each record is paired with measured EC50 data.
Molecular target: AMPKα1β1γ1 (Homo sapiens, UniProt Q13131+Q9Y478)
Construct: purchased CARNA 02-113
Sequence (Q13131 whole entry): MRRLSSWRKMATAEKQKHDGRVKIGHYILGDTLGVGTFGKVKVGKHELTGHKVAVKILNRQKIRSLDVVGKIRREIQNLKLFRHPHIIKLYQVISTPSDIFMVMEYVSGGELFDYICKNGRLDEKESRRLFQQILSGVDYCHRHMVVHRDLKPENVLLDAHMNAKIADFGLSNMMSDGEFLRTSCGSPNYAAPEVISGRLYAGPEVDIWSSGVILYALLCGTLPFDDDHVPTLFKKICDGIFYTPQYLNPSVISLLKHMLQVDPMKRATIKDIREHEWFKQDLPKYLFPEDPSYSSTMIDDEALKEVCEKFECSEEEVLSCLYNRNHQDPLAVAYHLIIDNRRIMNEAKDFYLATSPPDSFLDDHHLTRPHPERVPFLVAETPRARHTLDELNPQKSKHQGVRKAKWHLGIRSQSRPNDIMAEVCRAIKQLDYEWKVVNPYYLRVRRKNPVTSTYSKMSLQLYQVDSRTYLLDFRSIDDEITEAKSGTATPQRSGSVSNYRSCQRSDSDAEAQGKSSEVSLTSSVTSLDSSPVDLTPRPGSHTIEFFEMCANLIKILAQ
Sequence (Q9Y478 whole entry): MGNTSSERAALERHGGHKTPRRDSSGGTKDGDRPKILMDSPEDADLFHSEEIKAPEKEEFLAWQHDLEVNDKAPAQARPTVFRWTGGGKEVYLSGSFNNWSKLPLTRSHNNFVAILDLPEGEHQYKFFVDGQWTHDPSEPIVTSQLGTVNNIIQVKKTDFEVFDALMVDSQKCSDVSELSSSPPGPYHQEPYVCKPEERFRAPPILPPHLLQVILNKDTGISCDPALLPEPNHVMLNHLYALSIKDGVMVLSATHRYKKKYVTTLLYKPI
Sequence (P54619 whole entry partner): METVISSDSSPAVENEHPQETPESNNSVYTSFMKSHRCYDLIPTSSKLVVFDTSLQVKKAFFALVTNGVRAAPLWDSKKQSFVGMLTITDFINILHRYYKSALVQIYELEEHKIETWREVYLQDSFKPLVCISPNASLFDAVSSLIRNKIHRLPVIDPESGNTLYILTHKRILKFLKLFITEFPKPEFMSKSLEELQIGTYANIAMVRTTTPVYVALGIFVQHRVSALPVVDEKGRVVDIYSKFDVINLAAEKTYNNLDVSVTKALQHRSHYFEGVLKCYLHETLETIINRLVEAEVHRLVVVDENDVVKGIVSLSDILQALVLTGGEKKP
Test: In vitro assay for AMPK (α1β1γ1) enzyme agonist activity (TR-FRET)
Assay type: biochemical
Conditions: AMPKα1β1γ1 1.6 mg/L, ATP 0.1 mM, 1 hour at room temperature; four-parameter regression; read-out: EC50

MOLECULE | EC50
O=C(NCc1cccs1)c1c[nH]c2cc(Cl)c(-c3ccc(C4(CO)CC4)cc3)cc12 | > 800 nM
CNC(=O)C(=O)c1c[nH]c2cc(Cl)c(-c3ccc(C4(CO)CC4)cc3)cc12 | 200 to 800 nM
O=C(O)C(=O)c1c[nH]c2cc(Cl)c(-c3ccc(-c4ccccc4)cc3)cc12 | < 200 nM
O=C(NCC1COC1)c1c[nH]c2cc(Cl)c(-c3ccc(C4(O)CCC4)cc3)cc12 | > 800 nM
O=C(NCc1ccco1)c1c(O)[nH]c2cc(Cl)c(-c3ccc(C4(CO)CC4)cc3)cc12 | 200 to 800 nM

====

pEC50 listing for selected molecules.
Target: AMPKα1β1γ1 (Homo sapiens, UniProt Q13131+Q9Y478)
Construct: purchased CARNA 02-113
Assay: In vitro assay for AMPK (α1β1γ1) enzyme agonist activity (TR-FRET)
Format: biochemical
Settings: AMPKα1β1γ1 1.6 mg/L, ATP 0.1 mM, 1 hour at room temperature; four-parameter regression; read-out: EC50
pEC50: −log10 of the molar value.

MOLECULE | EXPERIMENTAL_TARGET | pEC50
O=C(NCc1ncco1)c1c[nH]c2cc(Cl)c(-c3ccc(C4(CO)CC4)cc3)cc12 | AMPKα1β1γ1 (Homo sapiens, UniProt Q13131+Q9Y478) | 6.10 to 6.70
O=C(O)C(=O)c1c[nH]c2cc(Cl)c(-c3ccc(-c4ccccc4O)cc3)cc12 | AMPKα1β1γ1 (Homo sapiens, UniProt Q13131+Q9Y478) | > 6.70
O=C(Nc1ccn[nH]1)c1c[nH]c2cc(Cl)c(-c3ccc(C4(CO)CC4)cc3)cc12 | AMPKα1β1γ1 (Homo sapiens, UniProt Q13131+Q9Y478) | > 6.70
O=C(O)C(=O)c1c[nH]c2cc(Cl)c(-c3ccc(C4(O)CCC4)cc3)nc12 | AMPKα1β1γ1 (Homo sapiens, UniProt Q13131+Q9Y478) | < 6.10

====

Target: AMPKα1β1γ1 (Homo sapiens, UniProt Q13131+Q9Y478)
Construct: purchased CARNA 02-113
Assay: In vitro assay for AMPK (α1β1γ1) enzyme agonist activity (TR-FRET)
Format: biochemical
Conditions: AMPKα1β1γ1 1.6 mg/L, ATP 0.1 mM, 1 hour at room temperature; four-parameter regression; read-out: EC50
pEC50: −log10 of the molar value.
pEC50 values by entry

MOLECULE | pEC50
O=C(NCc1ccccn1)c1c[nH]c2cc(Cl)c(-c3ccc(C4(O)CCC4)cc3)cc12 | < 6.10
O=C(O)Cc1c[nH]c2cc(Cl)c(-c3ccc(C4(O)CCC4)cc3)nc12 | < 6.10
COc1ccc(-c2cc3c(C(=O)C(=O)O)c[nH]c3cc2Cl)cc1 | 6.10 to 6.70
O=C(NCc1ccco1)c1c[nH]c2cc(Cl)c(-c3ccc(-c4ccccc4O)cc3)cc12 | > 6.70

====

Target: AMPKα1β1γ1 (Homo sapiens, UniProt Q13131+Q9Y478)
Construct: purchased CARNA 02-113
Assay: In vitro assay for AMPK (α1β1γ1) enzyme agonist activity (TR-FRET)
Type: biochemical
Conditions: AMPKα1β1γ1 1.6 mg/L, ATP 0.1 mM, 1 hour at room temperature; four-parameter regression; read-out: EC50

MOLECULE | EC50
Cn1ccc2cc(-c3cc4c(cc3Cl)NC(=O)C4(C)C(=O)NCc3ccco3)ccc21 (stereo not shown) [Compound 22] | > 800 nM
O=C(O)C(=O)c1c[nH]c2cc(Cl)c(-c3ccc(C4(O)CCC4)cc3)cc12 [Compound 2] | < 200 nM
O=C(NCc1ccno1)c1c[nH]c2cc(Cl)c(-c3ccc(C4(O)CCC4)cc3)cc12 [Compound 11] | 200 to 800 nM
O=C(O)C(=O)c1c[nH]c2cc(Cl)c(-c3ccc(C4(CO)CC4)cc3)cc12 [Compound 6] | < 200 nM
O=C1Nc2cc(Cl)c(-c3ccc(C4(CO)CC4)cc3)cc2C1=CNCc1ccco1 [Compound 21] | > 800 nM
Cn1ccc2cc(-c3cc4c(C(=O)C(=O)O)c[nH]c4cc3Cl)ccc21 [Compound 5] | < 200 nM
O=C(NCc1ccco1)c1c(O)[nH]c2cc(Cl)c(-c3ccc(-c4ccccc4O)cc3)cc12 [Compound 37] | 200 to 800 nM
COC(=O)C(=O)c1c[nH]c2cc(Cl)c(-c3ccc(C4(CO)CC4)cc3)cc12 [Compound 17] | < 200 nM
Cn1ccc2cc(-c3cc4c(C(=O)NCc5ccco5)c(O)[nH]c4cc3Cl)ccc21 [Compound 19] | 200 to 800 nM
O=C(NCc1ccco1)c1c[nH]c2cc(Cl)c(-c3ccc(C4(CO)CC4)cc3)cc12 [Compound 14] | > 800 nM
O=C(Nc1cc[nH]n1)c1c[nH]c2cc(Cl)c(-c3ccc(C4(O)CCC4)cc3)cc12 [Compound 33] | 200 to 800 nM
O=C(NCc1cnoc1)c1c[nH]c2cc(Cl)c(-c3ccc(C4(O)CCC4)cc3)cc12 [Compound 12] | > 800 nM
Cn1ccc2cc(-c3cc4c(C(=O)NCc5ncco5)c(O)[nH]c4cc3Cl)ccc21 [Compound 32] | 200 to 800 nM
O=C(NCc1nnn[nH]1)c1c[nH]c2cc(Cl)c(-c3ccc(C4(CO)CC4)cc3)cc12 [Compound 35] | < 200 nM
O=C(Nc1ncc[nH]1)c1c[nH]c2cc(Cl)c(-c3ccc(-c4ccccc4)cc3)cc12 [Compound 13] | > 800 nM
Cn1ccc2cc(-c3cc4c(C(=O)NCC(=O)O)c(O)[nH]c4cc3Cl)ccc21 [Compound 20] | 200 to 800 nM
